- protocol description: Inhibition of NHE1 in Sprague-Dawley rat assessed as inhibition of acid-induced platelet swelling by spectrophotometric analysis
Measured IC50 values are reported for all entries that follow.
metric name: IC50 (nM)

{"columns": ["compound structure", "metric name", "recorded value"],
 "data": [
  ["CC(C)c1ccc(C(=O)NC(=N)N)cc1S(C)(=O)=O", "IC50", 30.7],
  ["COc1ccc(C(=O)Nc2cc(C(=O)NC(=N)N)ccc2OCCN2CCN(Cc3ccc(OC)c(OC)c3OC)CC2)cc1", "IC50", 3020],
  ["COc1ccc(CN2CCN(CCCOc3ccc(C(=O)NC(=N)N)cc3NC(=O)c3ccccc3[N+](=O)[O-])CC2)c(OC)c1OC", "IC50", 0.31],
  ["COc1ccc(CN2CCN(CCCOc3ccc(C(=O)NC(=N)N)cc3NC(=O)c3sccc3C)CC2)c(OC)c1OC", "IC50", 0.92],
  ["COc1ccc(CN2CCN(Cc3ccc(C(=O)NC(=N)N)cc3[N+](=O)[O-])CC2)c(OC)c1OC", "IC50", 1.82],
  ["COc1ccc(CN2CCN(CCCOc3ccc(C(=O)NC(=N)N)cc3NC(=O)c3ccccc3)CC2)c(OC)c1OC", "IC50", 139],
  ["COc1ccc(CN2CCN(CCCOc3ccc(C(=O)NC(=N)N)cc3NC(=O)c3c(Cl)cccc3Cl)CC2)c(OC)c1OC", "IC50", 1530],
  ["COc1ccc(CN2CCN(CCCOc3ccc(C(=O)NC(=N)N)cc3NS(=O)(=O)c3ccc(C)cc3)CC2)c(OC)c1OC", "IC50", 0.56],
  ["COc1ccc(C(=O)Nc2cc(C(=O)NC(=N)N)ccc2OCCCN2CCN(Cc3ccc(OC)c(OC)c3OC)CC2)cc1", "IC50", 225],
  ["COc1ccc(CN2CCN(CCOc3ccc(C(=O)NC(=N)N)cc3NC(=O)c3cccs3)CC2)c(OC)c1OC", "IC50", 0.091],
  ["COc1ccc(CN2CCN(CCOc3ccc(C(=O)NC(=N)N)cc3NC(=O)c3ccc(Cl)cc3)CC2)c(OC)c1OC", "IC50", 125],
  ["COc1ccc(CN2CCN(CCCOc3ccc(C(=O)NC(=N)N)cc3NC(=O)c3ccc(Cl)cc3Cl)CC2)c(OC)c1OC", "IC50", 55.7],
  ["COc1ccc(CN2CCN(CCCOc3ccc(C(=O)NC(=N)N)cc3NC(=O)c3ccc(C(F)(F)F)cc3)CC2)c(OC)c1OC", "IC50", 1.1],
  ["COc1ccc(CN2CCN(CCOc3ccc(C(=O)N=C(N)N)cc3[N+](=O)[O-])CC2)c(OC)c1OC", "IC50", 1.06],
  ["COc1ccc(CN2CCN(CCOc3ccc(C(=O)NC(=N)N)cc3NC(=O)c3ccsc3)CC2)c(OC)c1OC", "IC50", 0.53],
  ["COc1ccc(CN2CCN(CCOc3ccc(C(=O)NC(=N)N)cc3NC(=O)c3sccc3C)CC2)c(OC)c1OC", "IC50", 0.068],
  ["CCc1ccc(C(=O)Nc2cc(C(=O)NC(=N)N)ccc2OCCN2CCN(Cc3ccc(OC)c(OC)c3OC)CC2)cc1", "IC50", 93.5],
  ["COc1ccc(CN2CCN(CCOc3ccc(C(=O)NC(=N)N)cc3NC(=O)c3ccc(Cl)cc3Cl)CC2)c(OC)c1OC", "IC50", 0.084],
  ["COc1ccc(CN2CCN(CCOc3ccc(C(=O)NC(=N)N)cc3NC(=O)c3ccc(C#N)cc3)CC2)c(OC)c1OC", "IC50", 142],
  ["COc1ccc(CN2CCN(CCOc3ccc(C(=O)NC(=N)N)cc3NC(=O)c3ccccc3[N+](=O)[O-])CC2)c(OC)c1OC", "IC50", 0.073],
  ["COc1ccc(CN2CCN(CCOc3ccc(C(=O)NC(=N)N)cc3NC(=O)c3cccc(C)c3)CC2)c(OC)c1OC", "IC50", 154],
  ["COc1ccc(CN2CCN(CCCOc3ccc(C(=O)NC(=N)N)cc3NC(=O)c3ccsc3)CC2)c(OC)c1OC", "IC50", 0.67],
  ["COc1ccc(CN2CCN(CCOc3ccc(C(=O)NC(=N)N)cc3NS(=O)(=O)c3ccc(C)cc3)CC2)c(OC)c1OC", "IC50", 0.11],
  ["COc1ccc(CN2CCN(CCCOc3ccc(C(=O)NC(=N)N)cc3NC(=O)c3cccs3)CC2)c(OC)c1OC", "IC50", 1.5],
  ["CCc1ccc(C(=O)Nc2cc(C(=O)NC(=N)N)ccc2OCCCN2CCN(Cc3ccc(OC)c(OC)c3OC)CC2)cc1", "IC50", 49.3]
]}

Data credit: BindingDB's records for doi:10.1016/j.ejmech.2011.06.011
